Numbers sourced from ChEMBL document CHEMBL3860059.

Recorded CC50 at 72 h for the following molecules
# protocol_description: Cytotoxicity against human THLE2 cells assessed as reduction in cell viability after 72 hrs by ATP Vialight assay
# Format: toxicity, cell-based, THLE-2
# stated_conditions: read-out: LC50
observed_property: CC50 at 72 h

>>> result("O=C(CCCCCCC(=O)Nc1ccccc1)NO")
"3.59 µM"
>>> result("CCCc1nn(C)c2c(=O)[nH]c(-c3cc(N4CCC(CC(=O)NO)CC4)ccc3OCC)nc12")
"88.7 µM"
>>> result("CN1CC(=O)N2[C@H](c3ccc4c(c3)OCO4)c3[nH]c4ccccc4c3C[C@@H]2C1=O")
"60.3 µM"
>>> result("CCCc1nn(C)c2c(=O)[nH]c(-c3cc(S(=O)(=O)N4CCN(C)CC4)ccc3OCC)nc12")
"> 100 µM"

---

# system_name: Histone deacetylase 1 (Homo sapiens, UniProt Q13547)
# Sequence (Q13547 whole entry): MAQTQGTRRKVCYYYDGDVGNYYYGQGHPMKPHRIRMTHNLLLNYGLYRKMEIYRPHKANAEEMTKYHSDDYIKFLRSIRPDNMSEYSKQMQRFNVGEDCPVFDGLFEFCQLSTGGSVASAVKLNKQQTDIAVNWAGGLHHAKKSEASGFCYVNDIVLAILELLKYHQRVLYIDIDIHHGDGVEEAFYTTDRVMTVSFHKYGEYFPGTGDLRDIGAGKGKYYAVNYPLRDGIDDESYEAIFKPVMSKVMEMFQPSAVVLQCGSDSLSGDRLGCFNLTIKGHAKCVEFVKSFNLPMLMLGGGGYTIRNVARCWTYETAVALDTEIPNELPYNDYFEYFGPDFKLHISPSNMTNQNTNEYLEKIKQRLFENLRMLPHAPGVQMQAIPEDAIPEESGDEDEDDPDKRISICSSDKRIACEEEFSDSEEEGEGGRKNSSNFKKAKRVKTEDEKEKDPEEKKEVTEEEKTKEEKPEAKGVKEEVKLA
# protocol_description: Inhibition of full length recombinant human C-terminal His/Flag-tagged HDAC1 expressed in baculovirus infected Sf9 cells using fluorogenic HDAC substrate after 30 mins by fluorescence analysis
Items are presented alongside their recorded log10 of IC50.
observed_property: log10 of IC50 (log10 of the value in nM)

>>> readout_number("CCCc1nn(C)c2c(=O)[nH]c(-c3cc(NCCC(=O)NO)ccc3OCC)nc12")
3.85
>>> readout_number("CCCc1nn(C)c2c(=O)[nH]c(-c3cc(NC4CCN(c5ncc(C(=O)NO)cn5)CC4)ccc3OCC)nc12")
1.83
>>> readout_number("CCCc1nn(C)c2c(=O)[nH]c(-c3cc(S(=O)(=O)N4CCC(CCC(=O)NO)CC4)ccc3OCC)nc12")
2.61
>>> readout_number("CCCc1nn(C)c2c(=O)[nH]c(-c3cc(N4CCCC5(CCC(C(=O)NO)CC5)C4)ccc3OCC)nc12 (stereo not given)")
3.97
>>> readout_number("CCCc1nn(C)c2c(=O)[nH]c(-c3cc(-c4ccc(C(=O)NO)nc4)ccc3OCC)nc12")
3.37
>>> readout_number("CCCc1nn(C)c2c(=O)[nH]c(-c3cc(-c4ccc(C(=O)NO)cn4)ccc3OCC)nc12")
2.55
>>> readout_number("CCCc1nn(C)c2c(=O)[nH]c(-c3cc(CN4CCC(C(=O)NO)CC4)ccc3OCC)nc12")
3.88
>>> readout_number("CCCc1nn(C)c2c(=O)[nH]c(-c3cc(S(=O)(=O)N4CCN(Cc5ccc(/C=C/C(=O)NO)cc5)CC4)ccc3OCC)nc12")
3.13
>>> readout_number("CCCc1nn(C)c2c(=O)[nH]c(-c3cc(CC4CCN(c5ccc(C(=O)NO)cn5)CC4)ccc3OCC)nc12")
3.27
>>> readout_number("CCCc1nn(C)c2c(=O)[nH]c(-c3cc(S(=O)(=O)N4CCN(CCC(=O)NO)CC4)ccc3OCC)nc12")
4.02
>>> readout_number("CCCc1nn(C)c2c(=O)[nH]c(-c3cc(N4CCC(CC(=O)NO)CC4)ccc3OCC)nc12")
3.77
>>> readout_number("CCCc1nn(C)c2c(=O)[nH]c(-c3cc(N4CCC5(CCC(C(=O)NO)C5)CC4)ccc3OCC)nc12 (stereo not given)")
4.11
>>> readout_number("CCCc1nn(C)c2c(=O)[nH]c(-c3cc(S(=O)(=O)NC4CCN(c5ncc(C(=O)NO)cn5)CC4)ccc3OCC)nc12")
1.76
>>> readout_number("CCCc1nn(C)c2c(=O)[nH]c(-c3cc(NCC4CCN(c5ncc(C(=O)NO)cn5)CC4)ccc3OCC)nc12")
2.07
>>> readout_number("CCCc1nn(C)c2c(=O)[nH]c(-c3cc(NC4CCC(C(=O)NO)CC4)ccc3OCC)nc12 (stereo not given)")
3.78
>>> readout_number("CCCc1nn(C)c2c(=O)[nH]c(-c3cc(NC4CCN(c5ccc(C(=O)NO)cc5)CC4)ccc3OCC)nc12")
3.89
>>> readout_number("CCCc1nn(C)c2c(=O)[nH]c(-c3cc(CCC(=O)NO)ccc3OCC)nc12")
3.68
>>> readout_number("CCCc1nn(C)c2c(=O)[nH]c(-c3cc(S(=O)(=O)Nc4ccc(/C=C/C(=O)NO)cc4)ccc3OCC)nc12")
2.55
>>> readout_number("CCCc1nn(C)c2c(=O)[nH]c(-c3cc(Oc4ccc(C(=O)NO)cc4)ccc3OCC)nc12")
2.75
>>> readout_number("CCCc1nn(C)c2c(=O)[nH]c(-c3cc(N4CCC(CCC(=O)NO)CC4)ccc3OCC)nc12")
2.78
>>> readout_number("CCCc1nn(C)c2c(=O)[nH]c(-c3cc(N(C)C4CCN(c5ncc(C(=O)NO)cn5)CC4)ccc3OCC)nc12")
1.40
>>> readout_number("CCCc1nn(C)c2c(=O)[nH]c(-c3cc(Cc4ccc(/C=C/C(=O)NO)cc4)ccc3OCC)nc12")
3.18

---

# system_name: cGMP-specific 3',5'-cyclic phosphodiesterase (Homo sapiens)
# protocol_description: Inhibition of full length recombinant human N-terminal GST-tagged PDE5A1 expressed in baculovirus infected Sf9 cells using cGMP as substrate after 30 mins by HTRF assay
pIC50: −log10 of the molar value.
observed_property: pIC50

>>> readout_number("CCCc1nn(C)c2c(=O)[nH]c(-c3cc(C4CC(C(=O)NO)C4)ccc3OCC)nc12 (centres undefined)")
7.77
>>> readout_number("CCCc1nn(C)c2c(=O)[nH]c(-c3cc(OC4CCC(C(=O)NO)CC4)ccc3OCC)nc12 (centres undefined)")
7.96
>>> readout_number("CCCc1nn(C)c2c(=O)[nH]c(-c3cc(N4CCC5(CCC(C(=O)NO)C5)CC4)ccc3OCC)nc12 (centres undefined)")
7.92
>>> readout_number("CCCc1nn(C)c2c(=O)[nH]c(-c3cc(Cc4ccc(CCC(=O)NO)cc4)ccc3OCC)nc12")
7.89

---

# protocol_description: Passive membrane permeability of the compound at 50 uM after 18 hrs by PAMPA
# Format: ADME
# stated_conditions: read-out: Peff
observed_property: Papp at 18 h, 50 µM (×10⁻⁶ cm/s)

>>> readout_number("O=C(CCCCCCC(=O)Nc1ccccc1)NO")
0.23
>>> readout_number("CCCc1nn(C)c2c(=O)[nH]c(-c3cc(Oc4ccc(C(=O)NO)cc4)ccc3OCC)nc12")
3.68
>>> readout_number("CCCc1nn(C)c2c(=O)[nH]c(-c3cc(S(=O)(=O)NC4CCN(c5ncc(C(=O)NO)cn5)CC4)ccc3OCC)nc12")
0.1
>>> readout_number("CCCc1nn(C)c2c(=O)[nH]c(-c3cc(CC4CCN(c5ncc(C(=O)NO)cn5)CC4)ccc3OCC)nc12")
0.41
>>> readout_number("CCCc1nn(C)c2c(=O)[nH]c(-c3cc(NC4CCN(c5ncc(C(=O)NO)cn5)CC4)ccc3OCC)nc12")
1.34
>>> readout_number("CCCc1nn(C)c2c(=O)[nH]c(-c3cc(-c4ccc(C(=O)NO)cn4)ccc3OCC)nc12")
0.92
>>> readout_number("CCCc1nn(C)c2c(=O)[nH]c(-c3cc(CN4CCN(c5ncc(C(=O)NO)cn5)CC4)ccc3OCC)nc12")
0.89
>>> readout_number("CCCc1nn(C)c2c(=O)[nH]c(-c3cc(N4CCC(CC(=O)NO)CC4)ccc3OCC)nc12")
0.49
>>> readout_number("CCCc1nn(C)c2c(=O)[nH]c(-c3cc(C4CC(C(=O)NO)C4)ccc3OCC)nc12 (centres undefined)")
1.37
>>> readout_number("CCCc1nn(C)c2c(=O)[nH]c(-c3cc(S(=O)(=O)N4CCN(C)CC4)ccc3OCC)nc12")
2.75
>>> readout_number("CCCc1nn(C)c2c(=O)[nH]c(-c3cc(S(=O)(=O)N4CCN(c5ncc(C(=O)NO)cn5)CC4)ccc3OCC)nc12")
0.72
>>> readout_number("CCCc1nn(C)c2c(=O)[nH]c(-c3cc(-c4ccc(C(=O)NO)nc4)ccc3OCC)nc12")
1.52
>>> readout_number("CCCc1nn(C)c2c(=O)[nH]c(-c3cc(S(=O)(=O)Nc4ccc(/C=C/C(=O)NO)cc4)ccc3OCC)nc12")
0.23
>>> readout_number("CN1CC(=O)N2[C@H](c3ccc4c(c3)OCO4)c3[nH]c4ccccc4c3C[C@@H]2C1=O")
2.68

---

# system_name: Histone deacetylase 1 (Homo sapiens, UniProt Q13547)
# protocol_description: Inhibition of full length recombinant human C-terminal His/Flag-tagged HDAC1 expressed in baculovirus infected Sf9 cells using fluorogenic HDAC substrate after 30 mins by fluorescence analysis
Quick reference: IC50 of the listed items.
observed_property: IC50 (µM)

>>> readout_number("CCCc1nn(C)c2c(=O)[nH]c(-c3cc(C(=O)NO)ccc3OCC)nc12")
6.42
>>> readout_number("CCCc1nn(C)c2c(=O)[nH]c(-c3cc(N4CCC5(CCN(c6ncc(C(=O)NO)cn6)CC5)C4)ccc3OCC)nc12")
0.443
>>> readout_number("CCCc1nn(C)c2c(=O)[nH]c(-c3cc(C4CC4C(=O)NO)ccc3OCC)nc12 (stereo not given)")
8.75
>>> readout_number("CCCc1nn(C)c2c(=O)[nH]c(-c3cc(OC4CCC(C(=O)NO)CC4)ccc3OCC)nc12 (stereo not given)")
2.44
